System: Cal27 (Head-neck)
Assay: Sulforhodamine B viable cell assay, 72 hours
Type: cell-based
Conditions: Homo sapiens, CAL-27
Where a name gives a salt, the structure may show the parent alone.
endpointLabel: IC50 (µM)
One number for each entry, in µM.

*Q* Query IC50 for CCN(CC)Cc1ccc2cc(COC(=O)Nc3ccc(C(=O)NO)cc3)ccc2c1 [ITF 2357, hydrochloride]
*A* 3.4

====

Test system: A549 (pulmonary carcinoma)
Experiment: Tritiated thymidine incorporation, tumour cell growth inhibition
Format: cell-based
Conditions: Homo sapiens, 48 hours with compound, read-out: IC50 (50% cell growth inhibition)
Structures can show the parent of a compound that is named as a salt.
endpointLabel: pIC50
One number for each entry, as −log10 of the molar value.

*Q* Query pIC50 for CCN(CC)Cc1ccc2cc(COC(=O)Nc3ccc(C(=O)NO)cc3)ccc2c1 [ITF 2357, hydrochloride]
*A* 6.31

====

System: Colo38 (Melanoma)
Assay: Sulforhodamine B viable cell assay, 72 hours
Assay type: cell-based
Details: Homo sapiens
Counter-ions that a name gives are not always drawn.
endpointLabel: IC50

*Q* Query IC50 for CCN(CC)Cc1ccc2cc(COC(=O)Nc3ccc(C(=O)NO)cc3)ccc2c1 [ITF 2357, hydrochloride]
*A* 2.38 µM
